Assay: chemical genetic growth profiling, strain panel (AID 1159580);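 also: tested at 20 µM; growth read once vehicle control cultures reached saturation at 30 °C; 1 = growth at the plate median or of vehicle wells; lower values mean less growth of the strain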
Conditions: S. cerevisiae deletion strains, growth OD, locus YNL128W, strain TEP1
In all, about 5,500 compounds went through this assay and about 2,000 (36%) were called active. Another 18% or so got no clear call; they are omitted. Rule as the data show it: active = normalized growth mostly below about 0.91 (no sharp cut-off); inconclusive = no clear call, values can overlap the other calls; inactive = mostly above about 0.92. Some of the results follow.
Tick one outcome: y (active), n (inactive)

| compound | discrete label |
| --- | --- |
| COc1cc2c(cc1OC)C1C(=O)c3c(OC)cc4c(c3OC1CO2)CCC(C)(C)O4 (configuration not stated) | n |
| C[C@H]1CC2C([C@@H](O)C[C@@]3(C)C2CC[C@]3(O)C(=O)CO)[C@@]2(C)C=CC(=O)C=C12 (some centres not stated) | n |
| CO[C@H]1[C@H](O)[C@H](O[C@H]2CC[C@]3(C)C4CC[C@]5(C)C(C6=CC(=O)OC6)CC[C@]5(O)C4CC[C@@H]3C2)O[C@@H](C)[C@@H]1O (some centres not stated) | n |
| CN(N=O)c1cc(O)ccc1O | n |
| CC(C)CC(NC(=O)C(Cc1ccccc1)NC(=O)CNC(=O)CNC(=O)C(N)Cc1ccc(O)cc1)C(=O)O (configuration not stated) | n |
| CCN(CC)CC#CCOC(=O)C(O)(c1ccccc1)C1CCCCC1 (configuration not stated) | y |

Input line: Status in this test for COc1ccc(OC)c(C(O)C(C)N)c1 (configuration not stated) ?
Output line: n

Input line: State the result this test recorded for CNC(=O)OCC[N+](C)(C)C .
Output line: n

Input line: What classification did COc1ccc(S(=O)(=O)Nc2ccccc2Oc2ccc(Cl)cc2Cl)cc1OC end up with in this test?
Output line: n

Input line: Each compound tested received a call. Report the one for COc1cc(/C=C2\NC(=O)NC2=O)ccc1O .
Output line: n

Input line: For CN(C)C(=S)SSC(=S)N(C)C , what call appears in the results of this test?
Output line: y

* * *

// normalized growth lookup, one value per entry
Assay: chemical genetic growth profiling, strain panel (AID 1159580)
Conditions: S. cerevisiae deletion strains, growth OD, locus YNL006W, strain LST8, stronger effect = lower value
The whole screen tested about 5,500 compounds, of which about 2,000 (36%) were called active. Inconclusive results (about 18%) are left out. This is one part of the list.
Write no unit; give the number alone.

| compound structure string | readout kind | readout value |
| --- | --- | --- |
| CC(C)(C)CN/C(C#N)=C(/C#N)NCc1cccc(Cl)c1 | normalized growth | 0.978 |
| Cc1ccc(/C=C2\CSc3ccc(F)cc3C2=O)cc1 | normalized growth | 0.952 |
| O=C(CSc1nnnn1-c1ccccc1)c1ccccc1 | normalized growth | 0.951 |

Input line: Input Cc1cc(C(=O)Nc2ccc(Cl)cc2)nn1C(C)(C)C , output reported normalized growth.
Output line: 0.992

Input line: Look up and report measured normalized growth for this entry: Cc1cc(Cl)ccc1NNC(=O)c1snnc1C
Output line: 0.974

Input line: Give the reported value of normalized growth for this record: COc1ccc(CN2CSC(=S)N(Cc3ccc(OC)cc3)C2)cc1
Output line: 0.945

* * *

Assay: chemical genetic growth profiling, strain panel (AID 1159580)
Settings: S. cerevisiae deletion strains, growth OD, locus YKL190W, strain CNB1, stronger effect = lower value
About 2,000 (36%) of roughly 5,500 compounds were called active. Another 18% or so got no clear call; they are omitted. The list shows a part of the results.
Listed below: normalized growth values for each entry.
Answer as a number with no unit attached.

Check out these entries, answers already filled in.
| molecule | normalized growth |
| --- | --- |
| C=C1C2CC[C@H]3[C@]4(C)C[C@H](OC5OC(CO)C(OS(=O)(=O)O)C(OS(=O)(=O)O)C5OC(=O)CC(C)C)C[C@@H](C(=O)O)[C@H]4CC[C@]3(C2)[C@H]1O (stereo partly specified) | 1.01 |
| Cc1cccc(C)c1OCC(C)N (stereo unspecified) | 0.996 |
| COc1cc(NS(=O)(=O)c2ccc(N)cc2)nc(OC)n1 | 0.999 |
| C=C(C)[C@@H]1[C@H]2OC(=O)[C@@H]1[C@]1(O)C[C@H]3O[C@]34C(=O)O[C@H]2[C@]14C | 1 |
| CC(=O)c1c(O)c(C)c(O)c2c1oc1c(C(C)=O)c(O)c(C)c(O)c12 | 0.988 |

Input line: Give the measured normalized growth for C=C1C([C@]2(C)C(CC(=O)OC)[C@@](C)(COC(C)=O)OC(=O)C[C@@H]2OC(C)=O)[C@@H](OC=O)[C@H](OC(=O)C(OC(C)=O)C(C)CC)[C@@]2(C)[C@H](c3ccoc3)CC(=O)C12O (stereo partly specified)
Output line: 1.01

Input line: Retrieve normalized growth measured for C[N+](C)(C)CCCCCC[N+](C)(C)C and print it.
Output line: 1.01

Input line: Report normalized growth for CCCCCCCCCCCCCCCC[N+](C)(C)C
Output line: 0.0478

* * *

Test: chemical genetic growth profiling, strain panel (AID 1159580);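 also: tested at 20 µM; growth read once vehicle control cultures reached saturation at 30 °C; 1 = growth at the plate median or of vehicle wells; lower values mean less growth of the strain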
Conditions: S. cerevisiae deletion strains, growth OD, locus YOR184W, strain ser1, stronger effect = lower value
Screen size: about 5,500 compounds; about 2,000 (36%) were called active. About 18% were inconclusive and are not listed. The list shows a part of the results.
# maps each entry to its normalized growth
Answer with a number only.

// below: answered compounds
| compound | normalized growth |
| --- | --- |
| COC1=C(OC)C(=O)C(C/C=C(\C)CC/C=C(\C)CC/C=C(\C)CC/C=C(/C)CC/C=C(\C)CC/C=C(\C)CC/C=C(\C)CC/C=C(\C)CC/C=C(\C)CCC=C(C)C)=C(C)C1=O | 1 |
| CC1(C)C(C=C(Cl)Cl)C1C(=O)OC(C#N)c1cccc(Oc2ccccc2)c1 (stereo not given) | 0.983 |
| CN1CCCN=C1COC(=O)C(O)(c1ccccc1)C1CCCCC1 (stereo not given) | 1 |

Input line: Assign normalized growth to the following record: CC(C(=O)O)c1cccc(Oc2ccccc2)c1 (stereo not given)
Output line: 0.98

Input line: // Input: COc1ccc(OC)c(C(O)C(C)N)c1 (stereo not given) . Output its normalized growth only.
Output line: 0.978

* * *

Assay: chemical genetic growth profiling, strain panel (AID 1159580);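 also: tested at 20 µM; growth read once vehicle control cultures reached saturation at 30 °C; 1 = growth at the plate median or of vehicle wells; lower values mean less growth of the strain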
Details: S. cerevisiae deletion strains, growth OD, locus YPR119W, strain clb2, stronger effect = lower value
Screen size: about 5,500 compounds; about 2,000 (36%) were called active. Another 18% or so got no clear call; they are omitted. The list shows a part of the results.
readout kind: normalized growth
I only need the number, thanks.

Worked examples follow.
| molecule | normalized growth |
| --- | --- |
| O=C(O)c1cc2ccccc2[nH]1 | 1 |
| C=C1C([C@]2(C)C(CC(=O)OC)[C@@](C)(COC(C)=O)OC(=O)C[C@@H]2OC(C)=O)[C@@H](OC=O)[C@H](OC(=O)C(O)C(C)CC)[C@@]2(C)[C@H](c3ccoc3)CC(=O)C12O (some centres undefined) | 1.01 |
| O=C(O)C1(O)C[C@@H](O)C(O)[C@H](O)C1 (some centres undefined) | 1.01 |
| CCOC(=O)C(Cc1ccc(O)cc1)NC(C)=O (centres undefined) | 1.01 |
| C[N+](C)(C)CCOC(N)=O | 0.973 |

Input line: Please give the documented normalized growth of CC(C[N+](C)(C)C)OC(N)=O (centres undefined)
Output line: 0.985

Input line: Please give the documented normalized growth of CCN(CC)CCNC(=O)c1cc(Br)c(N)cc1OC
Output line: 0.99

Input line: Determine from records and report normalized growth for CC(=O)OC(C)(C)[C@@H]1Cc2cc3ccc(=O)oc3cc2O1
Output line: 1.02

Input line: Report normalized growth, nothing else, for this molecule: COc1ccc2c(C)cc(=O)oc2c1
Output line: 1.02

* * *

Assay: chemical genetic growth profiling, strain panel (AID 1159580);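 also: tested at 20 µM; growth read once vehicle control cultures reached saturation at 30 °C; 1 = growth at the plate median or of vehicle wells; lower values mean less growth of the strain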
Settings: S. cerevisiae deletion strains, growth OD, locus YLR418C, strain cdc73
Among all 5,500 compounds or so, about 2,000 (36%) were called active. Another 18% or so got no clear call; they are omitted. Rule as the data show it: active = normalized growth mostly below about 0.91 (no sharp cut-off); inconclusive = no clear call, values can overlap the other calls; inactive = mostly above about 0.92. The list shows a part of the results.
Answer with one of the outcomes given here: active, inactive

Solved entries:
| molecule | discrete label |
| --- | --- |
| CN(C)CC/C=C1\c2ccccc2Sc2ccc(Cl)cc21 | active |
| COc1ccc2c3c1O[C@H]1C[C@@H](O)C=C[C@@]31CCN(C)C2 | inactive |
| CC1=C(/C=C/C(C)=C/C=C/C(C)=C/C=C/C=C(C)/C=C/C=C(C)/C=C/C2=C(C)C(=O)C(O)CC2(C)C)C(C)(C)CC(O)C1=O (stereo not given) | inactive |
| COc1cc2c(cc1OC)C1C(=O)c3c(O)cc4c(c3OC1CO2)C=CC(C)(C)O4 (stereo not given) | inactive |
| C=C1C([C@]2(C)C(CC(=O)OC)[C@@](C)(COC(C)=O)OC(=O)C[C@@H]2OC(C)=O)[C@@H](OC=O)[C@H](OC(=O)C(O)C(C)CC)[C@@]2(C)[C@H](c3ccoc3)CC(=O)C12O (stereo not given in full) | inactive |

Please look at the following molecule next.
Input line: Hey, what did the test say about CCC(C)C(=O)O[C@H]1[C@H](O)C2C(CN3CC(C)CCC3[C@@]2(C)O)C2C[C@]34O[C@]5(O)C(OC(=O)C(C)(O)C(C)O)CC[C@@]3(C)C5C(OC(C)=O)[C@@H](OC(C)=O)C4[C@@]21O (stereo not given in full) ?
Output line: inactive
